Molecular target: T1, IL-1beta (UniProt P01584 117-269)
T1 construct: also called IL-1β
Assay: Biacore
READOUT TYPE: fold difference in affinity vs parental (fold)
The response must be a number in fold with no trailing unit.

INSERT INTO measurements (binder, unit_label, result_value) VALUES
  ('XPA23 Fab, heavy chain K31W (Fab, V domains shown) VH: EVQLLESGGGLVQPGGSLRLSCAASGFTFSWYFMFWVRQAPGKGLEWVSVISPSGGMTRYADSVKGRFTISRDNSKNTLYLQMNSLRAEDTAVYYCARVGYGGNSDYWGQGTLVTVSS VL: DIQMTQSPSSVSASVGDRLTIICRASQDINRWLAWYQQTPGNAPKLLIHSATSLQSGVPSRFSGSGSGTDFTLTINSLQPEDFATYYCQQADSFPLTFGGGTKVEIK', 'fold', 0.84);

Which fold difference in affinity vs parental is listed for XPA23 Fab, heavy chain S54D (Fab, V domains shown) VH: EVQLLESGGGLVQPGGSLRLSCAASGFTFSKYFMFWVRQAPGKGLEWVSVISPDGGMTRYADSVKGRFTISRDNSKNTLYLQMNSLRAEDTAVYYCARVGYGGNSDYWGQGTLVTVSS VL: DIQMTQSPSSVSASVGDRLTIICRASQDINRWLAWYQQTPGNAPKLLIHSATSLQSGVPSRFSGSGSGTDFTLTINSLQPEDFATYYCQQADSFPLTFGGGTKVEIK ?
0.12
